assay: Anticancer human tumor 997537-175-T-J1-PDC patient-derived colon adenocarcinoma cell line growth inhibition [POLQ]; conditions: 997537-175-T-J1-PDC complex spheroid viability, combination with POLQ inhibitors; second compound 0.316 µM; first compound 0.316 µM; stronger effect = lower value;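 further: luminescence signal used as a surrogate for viable cells; spheroids exposed to drugs for seven days before readout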
Measure name: viability, T/C (%)
// note: answer is a bare numeric in %

Which value of viability, T/C has been reported for COc1cccc(OCCCN)c1-c1cc(Nc2cnc(C#N)cn2)n[nH]1 + Cc1cccc(N(C)C(=O)C2C(O)CCN2c2nc(C)cc(C(F)(F)F)c2C#N)c1 in the records?
48.2

Which value of viability, T/C has been reported for CCCS(=O)(=O)Nc1ccc(F)c(C(=O)c2c[nH]c3ncc(-c4ccc(Cl)cc4)cc23)c1F + Cc1cccc(N(C)C(=O)C2C(O)CCN2c2nc(C)cc(C(F)(F)F)c2C#N)c1 in the records?
71.7

Which value of viability, T/C has been reported for CCCS(=O)(=O)Nc1ccc(F)c(C(=O)c2c[nH]c3ncc(-c4ccc(Cl)cc4)cc23)c1F + COC1C(OC(N)=O)C(O)C(Oc2ccc3c(O)c(NC(=O)c4ccc(O)c(CC=C(C)C)c4)c(=O)oc3c2C)OC1(C)C in the records?
77.8

Which value of viability, T/C has been reported for CC1COCCN1c1cc(-c2ccnn2C)c2ccnc(-c3ccn[nH]3)c2n1 (stereo not given) + Nc1ccc(C#CCN(C(=O)Cc2ncc(C(F)(F)F)cc2C(F)(F)F)c2ccc(F)cc2)nn1 in the records?
51.4

Which value of viability, T/C has been reported for COc1cccc2c1C(=O)c1c(O)c3c(c(O)c1C2=O)CC(O)(C(=O)CO)CC3OC1CC(N)C(O)C(C)O1 (stereo not given) + COC1C(OC(N)=O)C(O)C(Oc2ccc3c(O)c(NC(=O)c4ccc(O)c(CC=C(C)C)c4)c(=O)oc3c2C)OC1(C)C in the records?
102

Which value of viability, T/C has been reported for O=C(c1cc(Cc2n[nH]c(=O)c3ccccc23)ccc1F)N1CCN(C(=O)C2CC2)CC1 + COC1C(OC(N)=O)C(O)C(Oc2ccc3c(O)c(NC(=O)c4ccc(O)c(CC=C(C)C)c4)c(=O)oc3c2C)OC1(C)C in the records?
98.9

Which value of viability, T/C has been reported for CCc1cc2c(N3CCc4c(cc(Cn5ccnc5)cc4-c4cn(C)nc4C(F)(F)F)C3=O)ccnc2c(OC)n1 + Cc1cccc(N(C)C(=O)C2C(O)CCN2c2nc(C)cc(C(F)(F)F)c2C#N)c1 in the records?
86.2

Which value of viability, T/C has been reported for CC1COCCN1c1cc(-c2ccnn2C)c2ccnc(-c3ccn[nH]3)c2n1 (stereo not given) + Cc1cccc(N(C)C(=O)C2C(O)CCN2c2nc(C)cc(C(F)(F)F)c2C#N)c1 in the records?
74

Which value of viability, T/C has been reported for CC(C)n1c(=O)n(C)c2cnc3cc(F)c(-c4ccc(OCCCN5CCCCC5)nc4)cc3c21 + Cc1cccc(N(C)C(=O)C2C(O)CCN2c2nc(C)cc(C(F)(F)F)c2C#N)c1 in the records?
105

Which value of viability, T/C has been reported for CC1COCCN1c1cc(C2(S(C)(=N)=O)CC2)nc(-c2ccnc3[nH]ccc23)n1 (stereo not given) + COC1C(OC(N)=O)C(O)C(Oc2ccc3c(O)c(NC(=O)c4ccc(O)c(CC=C(C)C)c4)c(=O)oc3c2C)OC1(C)C in the records?
105
